Item-by-item account of log10 MIC
Test system: Staphylococcus aureus
test: Antibacterial activity against methicillin-resistant Staphylococcus aureus ATCC 43300 after overnight incubation by broth dilution method
Type: functional
attributeMeasured: log10 MIC (log10 of the value in mg/L)

| chemSmiles | log10 MIC |
| --- | --- |
| C=C[C@]1(C)C[C@@H](OC(=O)CN2CCN(C(=O)CN3CCN(c4cccc(C)c4)CC3)CC2)[C@]2(C)[C@H](C)CC[C@]3(CCC(=O)[C@H]32)[C@@H](C)[C@@H]1O | -0.60 |
| C=C[C@]1(C)C[C@@H](OC(=O)CN2CCN(C(=O)CN3CCN(c4ccccc4)CC3)CC2)[C@]2(C)[C@H](C)CC[C@]3(CCC(=O)[C@H]32)[C@@H](C)[C@@H]1O | -0.90 |
| C=C[C@]1(C)C[C@@H](OC(=O)CN2CCN(C(=O)CN3CCN(c4ccccc4O)CC3)CC2)[C@]2(C)[C@H](C)CC[C@]3(CCC(=O)[C@H]32)[C@@H](C)[C@@H]1O | -0.30 |
| C=C[C@]1(C)C[C@@H](OC(=O)CN2CCN(C(=O)CN3CCN(c4ccc(OC)cc4)CC3)CC2)[C@]2(C)[C@H](C)CC[C@]3(CCC(=O)[C@H]32)[C@@H](C)[C@@H]1O | -0.60 |
| C=C[C@]1(C)C[C@@H](OC(=O)CN2CCN(C(=O)CN3CCN(c4ccccc4[N+](=O)[O-])CC3)CC2)[C@]2(C)[C@H](C)CC[C@]3(CCC(=O)[C@H]32)[C@@H](C)[C@@H]1O | -1.20 |
| C=C[C@]1(C)C[C@@H](OC(=O)CN2CCN(C(=O)CN3CCN(c4cccc(OC)c4)CC3)CC2)[C@]2(C)[C@H](C)CC[C@]3(CCC(=O)[C@H]32)[C@@H](C)[C@@H]1O | -0.60 |
| C=C[C@]1(C)C[C@@H](OC(=O)CN2CCN(C(=O)CN3CCN(c4ccccc4Cl)CC3)CC2)[C@]2(C)[C@H](C)CC[C@]3(CCC(=O)[C@H]32)[C@@H](C)[C@@H]1O | -1.82 |
| C=C[C@]1(C)C[C@@H](OC(=O)CN2CCN(C(=O)CN3CCN(c4cccc(Cl)c4)CC3)CC2)[C@]2(C)[C@H](C)CC[C@]3(CCC(=O)[C@H]32)[C@@H](C)[C@@H]1O | -1.52 |
| C=C[C@]1(C)C[C@@H](OC(=O)CN2CCN(C(=O)CN3CCN(c4ccc([N+](=O)[O-])cc4)CC3)CC2)[C@]2(C)[C@H](C)CC[C@]3(CCC(=O)[C@H]32)[C@@H](C)[C@@H]1O | -1.82 |
| C=C[C@]1(C)C[C@@H](OC(=O)CN2CCN(C(=O)CN3CCN(C)CC3)CC2)[C@]2(C)[C@H](C)CC[C@]3(CCC(=O)[C@H]32)[C@@H](C)[C@@H]1O | -0.90 |
| C=C[C@]1(C)C[C@@H](OC(=O)CO)[C@]2(C)[C@H](C)CC[C@]3(CCC(=O)[C@H]32)[C@@H](C)[C@@H]1O | 0.30 |

###

Test system: Staphylococcus aureus
test: Antibacterial activity against methicillin-resistant Staphylococcus aureus ATCC 43300 after overnight incubation by broth dilution method
Type: functional

| chemSmiles | systemTested | readoutUnit | comparisonSign | MIC |
| --- | --- | --- | --- | --- |
| C=C[C@]1(C)C[C@@H](OC(=O)CN2CCN(C(=O)CN3CCN(c4cccc([N+](=O)[O-])c4)CC3)CC2)[C@]2(C)[C@H](C)CC[C@]3(CCC(=O)[C@H]32)[C@@H](C)[C@@H]1O | Staphylococcus aureus | µg/mL | = | 0.0625 |
| C=C[C@]1(C)C[C@@H](OC(=O)CSC(C)(C)CNC(=O)[C@H](N)C(C)C)[C@]2(C)[C@H](C)CC[C@]3(CCC(=O)[C@H]32)[C@@H](C)[C@@H]1O | Staphylococcus aureus | µg/mL | = | 0.03 |
| C=C[C@]1(C)C[C@@H](OC(=O)CN2CCN(C(=O)CN3CCN(c4ccc(C)cc4)CC3)CC2)[C@]2(C)[C@H](C)CC[C@]3(CCC(=O)[C@H]32)[C@@H](C)[C@@H]1O | Staphylococcus aureus | µg/mL | = | 0.125 |
| C=C[C@]1(C)C[C@@H](OC(=O)CS[C@@H]2C[C@H]3CC[C@@H](C2)N3C)[C@]2(C)[C@H](C)CC[C@]3(CCC(=O)[C@H]32)[C@@H](C)[C@@H]1O | Staphylococcus aureus | µg/mL | = | 0.0625 |
| C=C[C@]1(C)C[C@@H](OC(=O)CN2CCN(C(=O)CN3CCN(c4ccccc4C)CC3)CC2)[C@]2(C)[C@H](C)CC[C@]3(CCC(=O)[C@H]32)[C@@H](C)[C@@H]1O | Staphylococcus aureus | µg/mL | = | 0.0625 |
| C=C[C@]1(C)C[C@@H](OC(=O)CSCCN(CC)CC)[C@]2(C)[C@H](C)CC[C@]3(CCC(=O)[C@H]32)[C@@H](C)[C@@H]1O | Staphylococcus aureus | µg/mL | = | 0.125 |
| C=C[C@]1(C)C[C@@H](OC(=O)CN2CCN(C(=O)CN3CCN(c4cccc(O)c4)CC3)CC2)[C@]2(C)[C@H](C)CC[C@]3(CCC(=O)[C@H]32)[C@@H](C)[C@@H]1O | Staphylococcus aureus | µg/mL | = | 0.25 |
| C=C[C@]1(C)C[C@@H](OC(=O)CN2CCN(C(=O)CCl)CC2)[C@]2(C)[C@H](C)CC[C@]3(CCC(=O)[C@H]32)[C@@H](C)[C@@H]1O | Staphylococcus aureus | µg/mL | > | 32 |
| C=C[C@]1(C)C[C@@H](OC(=O)CN2CCN(C(=O)CN3CCN(c4ccccc4OC)CC3)CC2)[C@]2(C)[C@H](C)CC[C@]3(CCC(=O)[C@H]32)[C@@H](C)[C@@H]1O | Staphylococcus aureus | µg/mL | = | 0.5 |
| C=C[C@]1(C)C[C@@H](OC(=O)CN2CCN(C(=O)CN3CCN(c4ccc(Cl)cc4)CC3)CC2)[C@]2(C)[C@H](C)CC[C@]3(CCC(=O)[C@H]32)[C@@H](C)[C@@H]1O | Staphylococcus aureus | µg/mL | = | 0.015 |
| C=C[C@]1(C)C[C@@H](OC(=O)CN2CCN(C(=O)CN3CCN(c4ccc(O)cc4)CC3)CC2)[C@]2(C)[C@H](C)CC[C@]3(CCC(=O)[C@H]32)[C@@H](C)[C@@H]1O | Staphylococcus aureus | µg/mL | = | 1 |
| C=C[C@]1(C)C[C@@H](OC(=O)CN2CCNCC2)[C@]2(C)[C@H](C)CC[C@]3(CCC(=O)[C@H]32)[C@@H](C)[C@@H]1O | Staphylococcus aureus | µg/mL | = | 1 |
